System: RXF 393 renal
Assay: NCI tumour cell line growth inhibition, 48 h; in the data active = GI50 below about 0.43 µM; inactive = the rest
Outcomes you can answer with include only these: t for active, f for inactive

>>> print(df.to_string())
                         smilesrepr  assignedcategory
0  Nc1nc(OCc2cc(Br)cs2)c2[nH]cnc2n1                 f

What classification did "COc1ccc(C(=O)COC(=O)[C@H](C[Se][Se]C[C@H](NC(=O)c2ccc(Br)cc2F)C(=O)OCC(=O)c2ccc(OC)cc2)NC(=O)c2ccc(Br)cc2F)cc1" end up with in this test? f

Now the compound "COc1ccc2c(c1)[nH]c(=O)c1c3cc(OC)ccc3cn21" t

Queued: "O=[N+]([O-])c1ccccc1N/N=C\c1c[nH]c2ccccc12" f

Next record, please: "CC(=O)c1cc(C(=O)c2ccc3c(c2)Sc2ccccc2N3)c2c(C)cc(C)cn12" t

Continue with "O=C1NC(=O)C(=C/C=C/c2ccccc2)C(=O)N1" f

====

Test system: M14 melanoma
Assay: NCI tumour cell line growth inhibition, 48 h
Please go through the items and note down their TGI.

// known answers, use as guide
molecule	readoutName	result
C[C@]12CC/C(=N\O)C=C1CC[C@@H]1[C@@H]2CC[C@]2(C)C(=N/O)/C(=C/c3ccc([N+](=O)[O-])cc3)C[C@@H]12	TGI	16 µM
Nc1nc(OCc2cc(Br)cs2)c2[nH]cnc2n1	TGI	> 100 µM
Cc1cccc2c1N(C(=O)/C=C\C(=O)O)C(c1c(C)[nH]c3ccccc13)C2 (stereo unspecified)	TGI	> 100 µM
Cc1ccc(S(=O)(=O)N2CCSCCN(S(=O)(=O)c3ccc(C)cc3)CCN(S(=O)(=O)c3ccc(C)cc3)CC2)cc1	TGI	> 100 µM

Could you report TGI for every entry in the following list?
1. C=CC(C1=CC(=O)C(OC)=CC1=O)c1ccccc1 (stereo unspecified)
2. COC(=O)C(Cc1cc(OC)c(OC)c(OC)c1)c1ccc(OC)cc1 (stereo unspecified)
3. CCOc1ccc(N/C(Cl)=C(Cl)\C(=C(\Nc2ccc(OCC)cc2)n2nnc3ccccc32)[N+](=O)[O-])cc1
4. CC1(C)C(O)C[C@@H](O)[C@@]2(C)C1CC[C@]1(C)C2C[C@@H](O)[C@@H]2C([C@@]3(C)CC[C@@H](C(C)(C)O)O3)CCC21C (stereo partly specified)
5. O=c1ccn(C2OC(CO)C(O)C2[Se]c2ccccc2)c(=O)[nH]1 (stereo unspecified)

1. 37.7 µM
2. > 100 µM
3. 17.3 µM
4. 27.7 µM
5. > 100 µM

// input: 7 molecules below; output: TGI for each
1. CCCCCCCCOCC(O)COC(=O)CCCCCCC (stereo unspecified)
2. CCOC(=O)[C@@]12C3C=CC(CC3)[C@]1(C(=O)c1ccccc1)C(=O)C(=O)N2c1ccccc1 (stereo partly specified)
3. NC(N)=N/N=C/c1c(-c2cc(Cl)sc2Cl)nc2sccn12
4. CS(=O)(=O)Nc1ccc(-c2cc(-c3ccccc3)cc(C(N)=O)c2N)cc1
5. CCCCCCCCCCCCCC1=NCCN1CCO
6. O=[N+]([O-])c1ccc(Sc2ncnc3nc[nH]c23)c2nonc12
7. O=[N+]([O-])c1ccccc1N/N=C\c1c[nH]c2ccccc12

1: > 100 µM; 2: > 100 µM; 3: > 50 µM; 4: > 25 µM; 5: 10.9 µM; 6: 13.5 µM; 7: > 100 µM

Reference for the values: PubChem BioAssay (NCI)
